Cited source: PubChem BioAssay (NCATS)

# Tested System: Tyrosine-protein kinase Yes (Homo sapiens)
# Method Summary: qHTS for small molecule inhibitors of Yes1 kinase: Primary Screen (AID 686947); further: potency means the concentration at half of the fitted maximal effect; nearly all actives have a fitted effect of over 60% in size
# Details: Yes1 kinase biochemical qHTS inhibition; series mostly up to 76.9 µM
Records with an inconclusive call do not appear. Active and inactive are the calls of the source. The call rests on the fitted dose curve; in most records, active means well fitted inhibition curve with a large enough effect; inconclusive means small, poorly fitted or top-dose-only effect; inactive means no such curve, though single readings can be large or run the other way.
Readout: Potency

Worked examples follow.
| Compound | Potency |
| --- | --- |
| COc1cccc(-n2cnc3c(NN=Cc4ccncc4)ncnc32)c1 | 582 nM (active) |
| c1ccc(-c2[nH]ncc2-c2ccnc(-c3ccc(OCCn4ccnc4)cc3)c2)nc1 | 4630 nM (active) |
| FC(F)(F)c1cccc(Nc2nccc(-c3cnn4nc(-c5ccccc5)ccc34)n2)c1 | 14600 nM (active) |
| CN(c1ccc(NC(=O)Nc2c(Cl)cccc2Cl)cc1)c1ccnc(Nc2cccc(CS(C)(=O)=O)c2)n1 | 1460 nM (active) |
| N#Cc1cccc(Nc2ncc(-c3ccccc3)o2)c1 | 26000 nM (active) |

# NS(=O)(=O)c1ccc(N=Nc2c(O)[nH]c3ccc(C(=O)NCCCn4ccnc4)cc23)cc1 with Tyrosine-protein kinase Yes (Homo sapiens): Potency is 2600 nM (active)

# NS(=O)(=O)c1ccc(Nc2cc(-c3ccc(O)c(F)c3)[nH]n2)cc1 with Tyrosine-protein kinase Yes (Homo sapiens): Potency is 5820 nM (active)

# CN1CCC(n2cnc(-c3ccc(F)cc3)c2-c2ccnc(Nc3ccccc3)n2)CC1 with Tyrosine-protein kinase Yes (Homo sapiens): Potency is 1160 nM (active)

# CCn1c(-c2nonc2N)nc2c(C#CC(C)(C)O)ncc(OC3CCNCC3)c21 with Tyrosine-protein kinase Yes (Homo sapiens): Potency is 26000 nM (active)

# CS(=O)(=O)Nc1cccc(-c2ccc3c(NC(=O)C4CC4)n[nH]c3c2)c1 with Tyrosine-protein kinase Yes (Homo sapiens): Potency is 11600 nM (active)

# c1ccc(Cc2nc3ccc(Nc4ncnc5ccccc45)cc3[nH]2)cc1 with Tyrosine-protein kinase Yes (Homo sapiens): Potency is 1160 nM (active)

----------
# Tested System: Cytochrome P450 2C9 (Homo sapiens)
# Method Summary: qHTS Assay for Inhibitors and Substrates of Cytochrome P450 2C9 (AID 883); further: nearly all actives have a fitted effect of over 60% in size
# Details: recombinant CYP2C9, luciferin-H luminescence, 60 min; series mostly up to 11.4 µM
Results filed as inconclusive are left out. The source made the active and inactive calls. Calls come from the whole dose curve; as a rule, active = well fitted inhibition curve with a large enough effect; inconclusive = small, poorly fitted or top-dose-only effect; inactive = no such curve, though single readings can be large or run the other way.
# output must be one of active, inactive

| Compound | Category Label |
| --- | --- |
| CCCCC#CC1C=CC(OC(C)=O)C(COC(C)=O)O1 (stereo not given) | inactive |
| COc1ccc(OC2C(O)COC2/C=C/C#Cc2ccc(F)cc2F)cc1 (stereo not given) | active |
| CC1CCC(C(=O)O)NC1c1cccc(N2CCOCC2)c1 (stereo not given) | inactive |
| COC(=O)[C@H](CCSC)NC(=O)C/C=C\[C@@H](C)CO | inactive |

--- query ---
Could you please tell me the result logged for CCOC(=O)OCC1OC(C#Cc2ccc(F)cc2F)C=CC1OC(=O)OCC (stereo not given) in this assay?
inactive

----------
# Tested System: Cytochrome P450 2D6 (Homo sapiens) (UniProt P10635)
# Sequence (P10635 whole entry, looked up): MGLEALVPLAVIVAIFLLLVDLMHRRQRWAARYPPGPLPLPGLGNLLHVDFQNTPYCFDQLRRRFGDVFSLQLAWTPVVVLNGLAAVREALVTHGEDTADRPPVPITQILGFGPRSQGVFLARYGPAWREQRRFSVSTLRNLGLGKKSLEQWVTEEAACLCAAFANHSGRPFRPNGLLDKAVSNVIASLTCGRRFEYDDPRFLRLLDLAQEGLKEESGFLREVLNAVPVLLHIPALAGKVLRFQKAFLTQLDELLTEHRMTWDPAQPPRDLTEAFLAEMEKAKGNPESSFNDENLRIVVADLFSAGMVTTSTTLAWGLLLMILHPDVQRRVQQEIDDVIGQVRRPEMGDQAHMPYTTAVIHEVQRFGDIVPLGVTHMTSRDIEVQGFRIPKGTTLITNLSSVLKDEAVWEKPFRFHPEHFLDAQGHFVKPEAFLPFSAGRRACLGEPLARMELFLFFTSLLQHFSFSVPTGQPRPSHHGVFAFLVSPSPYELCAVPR
# Method Summary: qHTS Assay for Inhibitors and Substrates of Cytochrome P450 2D6 (AID 891);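 further: luciferin methyl ether substrate demethylated by CYP2D6 with NADPH regeneration; nearly all actives have a fitted effect of over 60% in size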
# Details: recombinant CYP2D6, luciferin-ME EGE luminescence; series mostly up to 11.4 µM
Inconclusive results are not listed. Calls of active or inactive are those of the source. Calls follow the shape of the dose curve; as a rule, active = well fitted inhibition curve with a large enough effect; inconclusive = small, poorly fitted or top-dose-only effect; inactive = no such curve, though single readings can be large or run the other way.

| Compound | Tested System | outcome |
| --- | --- | --- |
| COC(=O)C/C=C\[C@@H](C)[C@@H](/C=N\OC[C@@H](O)COCc1ccco1)NS(=O)(=O)c1ccc(C)cc1 | Cytochrome P450 2D6 (Homo sapiens) (UniProt P10635) | inactive |
| O=Cc1ccc(OC2C=CC(c3ccccc3)OC2CO)cc1 (stereo not drawn) | Cytochrome P450 2D6 (Homo sapiens) (UniProt P10635) | inactive |
| COC(=O)C1=C(C)N(Cc2ccccc2)c2c(C(=O)OC)c(C(=O)OC)c(C(=O)OC)c(=O)n2C1c1ccccc1 (stereo not drawn) | Cytochrome P450 2D6 (Homo sapiens) (UniProt P10635) | inactive |
